Biological target: human ether-à-go-go-related gene (hERG) potassium channel (human, UniProt Q12809);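 further: peak tail current of the secondary pulse compared with the same well before compound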
Sequence (Q12809 whole entry, looked up): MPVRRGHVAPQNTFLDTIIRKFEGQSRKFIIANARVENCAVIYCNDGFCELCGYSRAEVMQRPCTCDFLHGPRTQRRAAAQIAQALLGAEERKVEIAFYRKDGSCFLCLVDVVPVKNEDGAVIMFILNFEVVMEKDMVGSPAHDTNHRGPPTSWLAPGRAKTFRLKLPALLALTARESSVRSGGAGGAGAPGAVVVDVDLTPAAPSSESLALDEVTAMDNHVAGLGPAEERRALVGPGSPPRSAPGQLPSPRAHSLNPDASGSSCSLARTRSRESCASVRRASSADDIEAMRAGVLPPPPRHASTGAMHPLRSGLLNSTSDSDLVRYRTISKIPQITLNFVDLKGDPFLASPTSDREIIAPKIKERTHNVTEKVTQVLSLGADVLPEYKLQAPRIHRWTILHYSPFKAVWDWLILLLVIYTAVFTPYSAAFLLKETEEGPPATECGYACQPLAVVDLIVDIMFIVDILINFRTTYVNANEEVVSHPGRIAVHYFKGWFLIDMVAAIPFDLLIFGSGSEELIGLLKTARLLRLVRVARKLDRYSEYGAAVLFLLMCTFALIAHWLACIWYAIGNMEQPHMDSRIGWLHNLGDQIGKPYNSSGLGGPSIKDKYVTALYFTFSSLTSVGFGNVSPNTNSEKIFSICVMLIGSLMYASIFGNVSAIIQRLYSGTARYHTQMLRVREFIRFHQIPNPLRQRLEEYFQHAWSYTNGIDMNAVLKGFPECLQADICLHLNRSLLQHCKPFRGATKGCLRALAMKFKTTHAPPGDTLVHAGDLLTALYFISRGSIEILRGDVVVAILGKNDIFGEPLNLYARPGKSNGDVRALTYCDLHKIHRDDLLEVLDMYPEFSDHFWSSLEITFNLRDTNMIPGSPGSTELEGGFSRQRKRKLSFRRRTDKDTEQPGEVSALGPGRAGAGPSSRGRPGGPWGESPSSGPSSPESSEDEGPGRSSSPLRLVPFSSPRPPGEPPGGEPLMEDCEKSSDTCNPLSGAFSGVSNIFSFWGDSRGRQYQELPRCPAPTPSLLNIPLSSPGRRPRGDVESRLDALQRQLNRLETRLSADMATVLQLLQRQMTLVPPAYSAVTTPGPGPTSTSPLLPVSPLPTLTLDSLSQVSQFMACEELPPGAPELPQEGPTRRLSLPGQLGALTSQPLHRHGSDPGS
Test: primary screen, population patch clamp on CHO cells stably expressing hERG; higher = less effect of the substance
Protocol: Briefly, Chinese hamster ovary (CHO) cells stably expressing the hERG channel were dislodged from tissue culture flasks and dispensed into PPC plates. […] During the recording, background leak currents were estimated by a 100 ms step to -80 mV from an initial holding potential of -70 mV and subtracted from the subsequent current measurement. The campaign was conducted in two phases using slight differences in recording protocol. […]
About 14,000 (4.5%) of roughly 310,000 compounds showed an effect of 50% or more. Effects have a minus sign here. Shown is part of a subset that was picked to be rich in strong results.
value-type: hERG current change (%, negative = inhibition) at 10uM

I have this molecule here, `Nc1nc2ccccc2n1CCOc1ccc(Cl)cc1` , and I need its recorded hERG current change (%, negative = inhibition) at 10uM. -51.1%

Repeat for the following molecule: Cc1ccc(NC2CCCN(C(=O)c3ccoc3C)C2)cc1C (stereo not drawn) -1.68%

Now this one: `CCOc1ccc(CN2CCC(Cc3ccccc3)CC2)cc1` -78.3%

And for `O=C(c1ccco1)N1CCN(c2c([N+](=O)[O-])nn(-c3cccc(Cl)c3)[n+]2[O-])CC1` ? -38.1%

Another: `Nc1nc2ccccc2n1CCOc1ccc(F)cc1` -67.9%

Another molecule to check: `CCOc1ccc(CCNC(=O)c2ccc(Cl)c(S(=O)(=O)N3CCOCC3)c2)cc1OCC` -20.4%

Note, next up: `CCCn1c(N)nc2ccccc21` 8.05%

Entry to check: `CCN(CC)C(=O)C(=O)c1cccn1-c1ccc(C#N)cc1` -18.8%

And then `CCCOC(=O)c1ccc(NC(=O)CC(C)(C)C)cc1` , what is it? -11.1%

Now try COc1cc2c(cc1OC)C1(CCCC1)CNC2C.Cl (stereo not drawn) . -3.04%

Now the molecule `Cc1cc(Nc2ccc(O)cc2)n2c(nc3ccccc32)c1C#N` 16.6%

Repeat for the following molecule: `Clc1ccc(OCCn2c(-c3ccco3)nc3ccccc32)cc1` -26.7%

Lookup COc1cc2c(cc1OC)C1(CCCC1)CNC2c1cccc([N+](=O)[O-])c1 (stereo not drawn) -43.3%

Can you handle `C#CC(C)(C)NC(=O)c1ccccc1OC` next? 1.69%

Same read-out for `Cc1ccc(OCC(=O)Nc2oc(-c3ccccc3)c(-c3ccccc3)c2C#N)cc1` ? 17.7%

Subsequent entry: `CCCCNC(=O)/C=C/c1ccc(S(=O)(=O)Nc2ccc(OC)cc2)cc1` 3.52%

What do you get for `O=S(=O)(c1ccc(Cl)cc1)N1CCN(C(=S)Nc2ccccc2F)CC1` ? 2.92%

Input Cc1cc(=O)oc2cc(NC(=O)C3CC(=O)N(Cc4ccccc4)C3)ccc12 (stereo not drawn) 5.29%

Follow-up item: `Clc1cccc(CN2CCC(Cc3ccccc3)CC2)c1` -27.9%

Next: `COc1ccc(/C=N/n2cnc3c(sc(=S)n3-c3ccccc3)c2=O)cc1` 13.4%

Query `O=C(N/N=C/c1coc2ccccc2c1=O)c1ccccc1Br` next -0.324%

Then what about the molecule `COc1ccc(OCCn2c(N)nc3ccccc32)cc1` ? -67.4%

Next: `Cc1c(C(=O)N2CCCC2)c(S(=O)(=O)Nc2cccc(Br)c2)c(C)n1C` 6.99%

Quick one: `N#Cc1nc(-c2ccc(F)cc2)oc1NCCCn1ccnc1` -49.3%

Check `O=c1c2cc3c(cc2[nH]c(=S)n1CCN1CCOCC1)OCO3` too. 9.66%

// same read-out, input: `Cc1cccc(-n2nc([N+](=O)[O-])c(N3CCN(C(=O)c4ccco4)CC3)[n+]2[O-])c1` -68.7%

Subsequent entry: `CN(Cc1nc(-c2cccc(Cl)c2)no1)C1CCOCC1` -22.7%

Same for `CCNc1ccc([N+](=O)[O-])cc1` 4.89%

Next: `COCCn1c(COc2ccc(OC)cc2)nc2ccccc21` -14.3%

Another molecule to look at: `COc1ccc(CCNC(=O)c2ccc(N3CCCC3=O)cc2)cc1OC` 15.3%

Another molecule to look at: Cc1nonc1OC(C)CNCCNc1ccc([N+](=O)[O-])cc1.Cl (stereo not drawn) -55.2%

Also, Cc1nonc1OC(C)CNc1ccc([N+](=O)[O-])cc1 (stereo not drawn) please. -58.7%

Check `O=C(NNC(=S)Nc1ccccc1)c1cccc(S(=O)(=O)N2CCOCC2)c1` too. 15.3%

Subsequent entry: `Fc1ccc(CN2CCC(Cc3ccccc3)CC2)cc1F` 2.03%

And then `O=C(CN1C(=O)NC2(CCCCCC2)C1=O)Nc1ccc(S(=O)(=O)N2CCOCC2)cc1` , what is it? 9.75%

Also, `COc1cccc(NC(=O)COC(=O)c2ccccc2F)c1` please. 13.8%

Cool, now `C=CCOc1ccccc1CN1CCC(Cc2ccccc2)CC1` -70.3%

# repeat for `CCCCN1CC(=O)N2[C@H]3c4ccccc4OC[C@@H]3[C@H](c3ccccc3)[C@]2(C)C1=O` -19.9%

Next molecule up: `CSc1ccc(CN2CCC(Cc3ccccc3)CC2)cc1` -65.4%

Likewise for `O=C(NCCc1csc(-c2ccccc2)n1)c1ccccc1F` ? -49.5%

Subsequent entry: `C=C1Cn2c(nnc2-c2ccc(Cl)cc2)S1` -27.4%

Cool, now CCOc1ccc(C(O)(CCC(C)C)C(CN2CCOCC2)c2ccccc2)cc1.Cl (stereo not drawn) 13.3%
